Target: T1, human MCAM domain 1 (amino acids 19-129), Fc-tagged (human, UniProt P43121 19-129)
T1 construct: also called MCAM Fc domain 1
T1 sequence: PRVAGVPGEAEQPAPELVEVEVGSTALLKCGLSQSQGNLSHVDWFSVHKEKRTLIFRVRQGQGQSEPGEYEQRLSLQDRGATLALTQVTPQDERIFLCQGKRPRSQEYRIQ
Assay: ForteBio domain mapping as in Example 8
Property label: binding result

mouse anti-human MCAM monoclonal antibody clone 1415.1.1 (antibody, V domains shown, mouse hybridoma antibody) VH: QVQLQQPGAELVQPGAPVKLSCKASGYIFTSYWMNWVKQRPGRGLEWIGRIDPSDSKIHYNQKFKDKATLTVDRSSSTAYIQLGSLTSEDSAVYYCAKEGGLRRGDYAMDYWGQGTSVTVSS VL: DIVMTQSPATLSVTPGDRVSLSCRASQSISDYLHWYQQKSHESPRLLIKYASQSISGIPSRFSGSGSGSDFTLSINSVEPEDVGVYYCQNGHNFPRTFGGGTKLEIK : no binding
mouse anti-human MCAM monoclonal antibody clone 1174.1.3 (antibody, V domains shown, mouse hybridoma antibody) VH: QIQLVQSGPELKKPGETVKISCKASGYTFTNYGMNWVKQAPGKGLKWMGWINTYTGEPTYADDFKGRFALSLETSASTAYLQINNLKNEDMATYFCARYRYNKYERAMDYWGQGTSVTVSS VL: DIVLTQSPASLAVSLGQRATISCRASKSVSTSGYSYMYWYQQKPGQPPKLLIYLASNLESGVPARFSGSGSGTDFTLNIHPVEEEDAATYYCQHSRELPFTFGSGTKLEIK : no binding
mouse anti-human MCAM monoclonal antibody clone 1414.1.2 (antibody, V domains shown, mouse hybridoma antibody) VH: EIQLQQTGPELVKPGASVKISCKASGYSFTDYIMLWVKQSHGKSLEWIGNINPYSGSSGYNLKFKGKATLTVDKSSSTAYMQLNSLTSEDSAVYYCARGKDFAMDYWGQGTSVTVSS VL: DIVMSQSPSSLAVSAGEKVTMSCKSSQSLLNSSTRKNFLAWYQQKPGQSPKLLIYWASTRESGVPDRFTGSGSGTDFTLTISSVQAEDLAVYYCKQSYNRYTFGGGTKLEIK : no binding
